tgt: CDK4 (Homo sapiens, UniProt P11802+Q16531)
experimental_details: HiBiT detection of HiBiT-tagged CDK4 protein level in MCF7 cells, 16 hours (Table 8)
Format: cell-based
Parameters: expressed in transfected cells; host or cells: MCF7
condition_label: 100 nM, MCF7 cells stably expressing HiBiT tagged target proteins, read-out: % CDK4 Relative Level (100 nM)
Procedure: HiBiT detection system quantitatively measures total amounts of HiBiT-tagged proteins using a luminescent based method. MCF7 cells stably expressing HiBiT tagged target proteins were treated with heterobifunctional compounds at indicated concentrations for 16 hours, then lysed with Nano-Glo HiBiT Lytic detection reagents.
Sequence (P11802 whole entry): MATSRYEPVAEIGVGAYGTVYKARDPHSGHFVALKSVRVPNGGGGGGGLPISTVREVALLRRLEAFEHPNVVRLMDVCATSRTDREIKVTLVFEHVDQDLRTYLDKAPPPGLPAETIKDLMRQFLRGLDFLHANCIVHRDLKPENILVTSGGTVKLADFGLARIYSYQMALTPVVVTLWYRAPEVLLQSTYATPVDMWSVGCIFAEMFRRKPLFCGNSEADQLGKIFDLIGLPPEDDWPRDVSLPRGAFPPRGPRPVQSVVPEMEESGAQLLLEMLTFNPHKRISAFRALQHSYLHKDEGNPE
Sequence (P24385 whole entry partner): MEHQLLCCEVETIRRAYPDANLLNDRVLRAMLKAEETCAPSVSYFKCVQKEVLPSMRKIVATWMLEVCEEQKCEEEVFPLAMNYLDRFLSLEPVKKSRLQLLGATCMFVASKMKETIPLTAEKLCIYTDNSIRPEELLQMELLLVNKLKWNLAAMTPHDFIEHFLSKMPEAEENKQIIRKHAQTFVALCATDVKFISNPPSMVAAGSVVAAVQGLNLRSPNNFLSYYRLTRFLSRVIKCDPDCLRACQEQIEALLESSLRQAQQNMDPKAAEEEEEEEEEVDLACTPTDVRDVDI
Sequence (Q16531 2-1140 limits assumed): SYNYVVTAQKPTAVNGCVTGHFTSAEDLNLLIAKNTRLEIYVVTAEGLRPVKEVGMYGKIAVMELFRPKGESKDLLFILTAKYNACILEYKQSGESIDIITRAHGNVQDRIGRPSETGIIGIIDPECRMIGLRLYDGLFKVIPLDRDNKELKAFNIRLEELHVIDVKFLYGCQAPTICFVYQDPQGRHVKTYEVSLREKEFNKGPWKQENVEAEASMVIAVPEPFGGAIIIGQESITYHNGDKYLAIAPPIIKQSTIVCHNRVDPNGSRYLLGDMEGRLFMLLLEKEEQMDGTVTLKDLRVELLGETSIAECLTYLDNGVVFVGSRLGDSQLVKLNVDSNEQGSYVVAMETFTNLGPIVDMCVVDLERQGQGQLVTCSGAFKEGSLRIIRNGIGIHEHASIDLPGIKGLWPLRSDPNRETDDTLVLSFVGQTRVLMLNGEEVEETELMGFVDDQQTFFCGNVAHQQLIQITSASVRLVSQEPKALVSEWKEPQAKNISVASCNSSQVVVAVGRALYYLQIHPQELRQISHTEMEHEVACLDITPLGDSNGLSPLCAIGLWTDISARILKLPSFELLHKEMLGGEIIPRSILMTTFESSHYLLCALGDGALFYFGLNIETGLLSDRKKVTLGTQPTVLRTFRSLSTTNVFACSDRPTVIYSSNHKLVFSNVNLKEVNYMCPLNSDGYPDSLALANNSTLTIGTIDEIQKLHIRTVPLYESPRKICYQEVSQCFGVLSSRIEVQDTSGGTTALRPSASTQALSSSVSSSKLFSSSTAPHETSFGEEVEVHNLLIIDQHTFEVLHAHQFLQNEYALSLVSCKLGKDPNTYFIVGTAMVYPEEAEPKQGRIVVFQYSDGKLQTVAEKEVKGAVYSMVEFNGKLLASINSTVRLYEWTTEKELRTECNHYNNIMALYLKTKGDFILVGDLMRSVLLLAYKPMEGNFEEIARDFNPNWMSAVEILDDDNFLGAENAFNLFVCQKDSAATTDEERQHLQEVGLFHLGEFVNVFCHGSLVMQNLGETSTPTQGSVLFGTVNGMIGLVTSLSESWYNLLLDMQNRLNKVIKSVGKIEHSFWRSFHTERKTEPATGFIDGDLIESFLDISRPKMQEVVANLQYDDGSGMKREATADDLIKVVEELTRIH
The entries below are paired with their reported activity at 0.1 µM.
parameter: activity at 0.1 µM

INSERT INTO measurements (compound, tgt, result) VALUES
  ('CC(=O)c1c(C)c2cnc(Nc3ccc(N4CCN(C5CCN(C(=O)N6CCC(Nc7nc(NC(C)C)ccc7C(=O)Nc7ccc(N(C)C)nn7)CC6)C5)CC4)cn3)nc2n(C2CCCC2)c1=O (centres unmarked) [CPD-469]', 'CDK4 (Homo sapiens, UniProt P11802+Q16531)', '≤ 55%'),
  ('CNc1ccc(C(=O)Nc2ccc(N(C)C)nn2)c(NCCNC(=O)CN2CCN(c3ccc(Nc4ncc5cc6n(c5n4)C4(CCCCC4)CNC6=O)nc3)CC2)n1 [CPD-640]', 'CDK4 (Homo sapiens, UniProt P11802+Q16531)', '55 to 85%'),
  ('CNc1ccc(C(=O)Nc2ccc(N(C)C)nn2)c(NCCCNC(=O)CN2CCN(c3ccc(Nc4ncc5cc(C(=O)N(C)C)n(C6CCCC6)c5n4)nc3)CC2)n1 [CPD-625]', 'CDK4 (Homo sapiens, UniProt P11802+Q16531)', '55 to 85%'),
  ('CC(=O)c1c(C)c2cnc(Nc3ccc(N4CCN(C5CCN(C(=O)[C@H]6CC[C@H](Nc7nc(NC(C)C)ccc7C(=O)Nc7cc8n(n7)CCC8)CC6)C5)CC4)cn3)nc2n(C2CCCC2)c1=O (some centres unmarked) [CPD-520]', 'CDK4 (Homo sapiens, UniProt P11802+Q16531)', '> 85%'),
  ('CC(=O)c1c(C)c2cnc(Nc3ccc(CN4CCN(CC(=O)N5CCC6(CCC(Nc7nc(C(C)C)ccc7C(=O)Nc7ccc(N(C)C)nn7)C6)C5)CC4)cn3)nc2n(C2CCCC2)c1=O (centres unmarked) [CPD-583]', 'CDK4 (Homo sapiens, UniProt P11802+Q16531)', '55 to 85%');

----------
Listing of recorded inhibition at 0.2 µM by entry.
tgt: CDK4 (Homo sapiens, UniProt P11802+Q16531)
experimental_details: CDK4 percentage degradation in Calu-1 cells (Table 6)
Assay type: cell-based
Set-up: Cells that express cyclin D1-3 and CDK4/6 proteins were treated with heterobifunctional compounds; endogenous in cells; host or cells: Calu-1
condition_label: 200 nM, 16 hours
Sequence (P11802 2-303 limits assumed): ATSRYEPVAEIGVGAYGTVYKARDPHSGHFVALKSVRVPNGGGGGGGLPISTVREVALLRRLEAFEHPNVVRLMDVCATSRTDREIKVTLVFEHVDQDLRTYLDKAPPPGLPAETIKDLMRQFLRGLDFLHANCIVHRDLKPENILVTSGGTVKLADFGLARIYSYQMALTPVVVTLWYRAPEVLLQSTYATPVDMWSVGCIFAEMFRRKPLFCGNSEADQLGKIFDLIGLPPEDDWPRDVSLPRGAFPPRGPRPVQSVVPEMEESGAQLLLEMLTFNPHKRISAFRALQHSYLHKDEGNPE
Sequence (P24385 whole entry partner): as the sequence (P24385 whole entry partner) above
Sequence (Q16531 2-1140 limits assumed): as the sequence (Q16531 2-1140 limits assumed) above
parameter: inhibition at 0.2 µM

INSERT INTO measurements (molecule, result) VALUES
  ('CNc1ccc(C(=O)Nc2ccc(N(C)C)nn2)c(NC2CCC3(C2)CN(C(=O)CN2CCN(c4ccc(Nc5ncc6c(C)c(C(C)=O)c(=O)n(C7CCCC7)c6n5)nc4)CC2)C3)n1 (stereo not drawn) [CPD-235]', '50 to 80%'),
  ('CNc1ccc(C(=O)Nc2ccc(N(C)C)nn2)c(NC2CC3(C2)CN(C(=O)CCN2CCN(c4ccc(Nc5ncc6c(C)c(C(C)=O)c(=O)n(C7CCCC7)c6n5)nc4)CC2)C3)n1 [CPD-62]', '> 80%'),
  ('CNc1ccc(NC(=O)c2ccc(NC)nc2NCCCCCNC(=O)CN2CCN(c3ccc(Nc4ncc5c(C)c(C(C)=O)c(=O)n(C6CCCC6)c5n4)nc3)CC2)nn1 [CPD-110]', '50 to 80%'),
  ('CNc1ccc(C(=O)Nc2ccc(N3CCCC3)nn2)c(NCCCCCNC(=O)CN2CCN(c3ccc(Nc4ncc5c(C)c(C(C)=O)c(=O)n(C6CCCC6)c5n4)nc3)CC2)n1 [CPD-17]', '30 to 50%'),
  ('[2H]C([2H])([2H])Nc1ccc(C(=O)Nc2cn(C)c(C3CC3)n2)c(NC2CC3(CC(NC(=O)CN4CCN(c5ccc(Nc6ncc7c(C)c(C(C)=O)c(=O)n(C8CCCC8)c7n6)nc5)CC4)C3)C2)n1 (stereo not drawn) [CPD-237]', '50 to 80%'),
  ('CC(=O)c1c(C)c2cnc(Nc3ccc(N4CCN(CC(=O)NCC5CC(Nc6nc(NC(C)C)ccc6C(=O)Nc6ccc(N(C)C)nn6)C5)CC4)cn3)nc2n(C2CCCC2)c1=O (stereo not drawn) [CPD-316]', '30 to 50%'),
  ('CNc1ccc(C(=O)Nc2cc(C)n(C)n2)c(NC2CC3(C2)CN(C(=O)CCN2CCN(c4ccc(Nc5ncc6c(C)c(C(C)=O)c(=O)n(C7CCCC7)c6n5)nc4)CC2)C3)n1 [CPD-129]', '50 to 80%'),
  ('CNc1ccc(C(=O)Nc2ccc(N(C)C)nn2)c(NCCC2CCN(C(=O)CN3CCN(c4ccc(Nc5ncc6c(C)c(C(C)=O)c(=O)n(C7CCCC7)c6n5)nc4)CC3)CC2)n1 [CPD-89]', '50 to 80%'),
  ('CNc1ccc(C(=O)Nc2cccc(C)n2)c(NC2CC3(C2)CN(C(=O)C(C)(C)N2CCN(c4ccc(Nc5ncc6c(C)c(C(C)=O)c(=O)n(C7CCCC7)c6n5)nc4)CC2)C3)n1 [CPD-176]', '50 to 80%'),
  ('CNc1ccc(C(=O)Nc2ccc(N(C)C)nn2)c(NC2CC3(C2)CN(C(=O)C(F)(F)CN2CCN(c4ccc(Nc5ncc6c(C)c(C(C)=O)c(=O)n(C7CCCC7)c6n5)nc4)CC2)C3)n1 [CPD-208]', '> 80%'),
  ('CNc1ccc(C(=O)Nc2ccc(C(C)C)nn2)c(NCCCCCNC(=O)CN2CCN(c3ccc(Nc4ncc5c(C)c(C(C)=O)c(=O)n(C6CCCC6)c5n4)nc3)CC2)n1 [CPD-15]', '< 30%'),
  ('CNc1ccc(C(=O)Nc2cccc(N(C)C)n2)c(NC2CC3(CC(NC(=O)CN4CCN(c5ccc(Nc6ncc7c(C)c(C(C)=O)c(=O)n(C8CCCC8)c7n6)nc5)CC4)C3)C2)n1 (stereo not drawn) [CPD-88]', '50 to 80%'),
  ('CC(=O)c1c(C)c2cnc(Nc3ccc(N4CCN(CC(=O)NC5CC6(C5)CC(Nc5nc(C)ccc5C(=O)Nc5cccc(C)n5)C6)CC4)cn3)nc2n(C2CCCC2)c1=O (stereo not drawn) [CPD-191]', '30 to 50%'),
  ('CNc1ccc(C(=O)Nc2ccc(N(C)C)nn2)c(NC2CC3(CC(CCCN4CCN(c5ccc(Nc6ncc7c(C)c(C(C)=O)c(=O)n(C8CCCC8)c7n6)nc5)CC4)C3)C2)n1 (stereo not drawn) [CPD-83]', '30 to 50%'),
  ('CC(=O)c1c(C)c2cnc(Nc3ccc(N4CCN(CC(=O)NCCCCCNc5nc(C(F)(F)F)ccc5C(=O)Nc5ccc(N(C)C)nn5)CC4)cn3)nc2n(C2CCCC2)c1=O [CPD-68]', '50 to 80%'),
  ('CNc1ccc(C(=O)Nc2ccc(N(C)C)nn2)c(NC2CC(NC(=O)C(C)(C)N3CCN(c4ccc(Nc5ncc6c(C)c(C(C)=O)c(=O)n(C7CCCC7)c6n5)nc4)CC3)C2)n1 (stereo not drawn) [CPD-243]', '50 to 80%'),
  ('CNc1ccc(C(=O)Nc2ccc(N(C)C)nn2)c(NC2CC(CNC(=O)N3CCN(c4ccc(Nc5ncc6c(C)c(C(C)=O)c(=O)n(C7CCCC7)c6n5)nc4)CC3)C2)n1 (stereo not drawn) [CPD-166]', '50 to 80%'),
  ('CC(=O)c1c(C)c2cnc(Nc3ccc(N4CCC5(CC4)CC5C(=O)N4CC5(CC(Nc6nc(NC(C)C)ccc6C(=O)Nc6ccc(N(C)C)nn6)C5)C4)cn3)nc2n(C2CCCC2)c1=O (stereo not drawn) [CPD-411]', '< 30%'),
  ('CNc1ccc(C(=O)Nc2cccc(C3CC3)n2)c(NC2CC3(C2)CN(C(=O)C2(CN4CCN(c5ccc(Nc6ncc7c(C)c(C(C)=O)c(=O)n(C8CCCC8)c7n6)nc5)CC4)CC2)C3)n1 [CPD-173]', '> 80%'),
  ('CNc1ccc(C(=O)Nc2ccc(N(C)C)nn2)c(NC2CC3(CC(NCC(=O)N4CCN(c5ccc(Nc6ncc7c(C)c(C(C)=O)c(=O)n(C8CCCC8)c7n6)nc5)CC4)C3)C2)n1 (stereo not drawn) [CPD-78]', '50 to 80%'),
  ('CNc1ccc(C(=O)Nc2ccc(N(C)C)nn2)c(NC2CC(CCNC(=O)N3CCN(c4ccc(Nc5ncc6c(C)c(C(C)=O)c(=O)n(C7CCCC7)c6n5)nc4)CC3)C2)n1 (stereo not drawn) [CPD-35]', '50 to 80%');
